Test: HepG2 liver cancer cell viability effects, profiling panel, resazurin fluorescence, 24 h, PK04 Diversity Set (AID 1172); also: test concentration not given here
Settings: higher = more signal
// reported z-score per item
Give only the figure.

Example entries and their recorded answers appear below.
CO[C@H]1O[C@H](CO)[C@@H](OC(=O)CCc2ccccc2)[C@H](OC(=O)c2cc3ccccc3[nH]2)[C@H]1OC(=O)c1cc2ccccc2[nH]1; -1.4
COc1cc2c(cc1O)C(c1cccs1)N(Cc1sc3ccccc3c1Cl)CC2 (stereo not given); -1.05
O=C1C2C=CC(C(O)c3ccc4c(c3)OCO4)N(Nc3ccccc3)C2C(=O)N1c1ccccc1 (stereo not given); -0.0551
[N-]=[N+]=NCc1ccccc1[C@@H]1OC(c2ccc(OCCCO)cc2)=N[C@]1(Cc1ccccc1)C(=O)NCCN1CCOCC1; -0.195

Exercise: Name the recorded z-score for CC(C)C[C@@H]1NC(=O)CNC(=O)[C@@]23C(=O)N[C@@H](Cc4ccccc4)C2[C@H](C)[C@@]2(C)O[C@H]2C3/C=C/C/C=C\CNC1=O (stereo not given in full) .
Key: 0.544

Exercise: Name the recorded z-score for C=C(COC)/C(=C/C[C@@H](OC(C)=O)c1ccc(CO)o1)c1cc(C(=O)OC)ccc1OC .
Key: -0.0453

Exercise: Name the recorded z-score for C=C(/C(=C/C[C@@H](OC(C)=O)c1ccc(OCCO)cc1)c1cc(C(=O)OC)ccc1OC)C(C)C .
Key: -0.459

----------
// reported z-score per item
Assay: HepG2 liver cancer cell viability effects, profiling panel, resazurin fluorescence, 24 h, PK04 Diversity Set (AID 1172); also: test concentration not given here
Settings: higher = more signal
Give only the figure.

Example entries and their recorded answers appear below.
CC(C)C[C@@H]1NC(=O)[C@@H]2C[C@H](C(=O)NCCCCCC[N+](C)(C)C)[C@H](c3cccc(OCCO)c3)N2C1=O; -0.482
C=C[C@@H](C)[C@@H](OC(=O)Nc1ccc(SC)cc1)c1ccc(OCCO)cc1; 0.627
COc1cc(CO)cc(I)c1O[C@H]1C=C(C(=O)NCCO)C[C@@H](NCC2CCCCC2)[C@@H]1O; 0.361
C=CCNC(=O)[C@H]1[C@@H]2C(=O)O[C@@H](c3ccccc3)[C@@H](c3ccccc3)N2[C@@H](c2ccc(OCCO)cc2)[C@]12C(=O)Nc1ccc(C#CCNC(N)=O)cc12; -0.598
COC(=O)[C@@]1(Cc2ccccc2CN=[N+]=[N-])N=C(c2ccc(OCCCO)cc2)O[C@H]1c1ccccc1; -2.6

Exercise: Name the recorded z-score for COc1ccc([Si](C)(C)[C@H]2[C@H](CCO)O[C@@]3(C(=O)N(Cc4ccccc4)c4ccc(N5C(=O)c6ccccc6Oc6ccccc65)cc43)[C@@H]2C)cc1 .
Key: -1.6

Exercise: Name the recorded z-score for O=C1OCCC=C[C@H]2OC34C=CCN(c5ccc(Cl)cc5)C(=O)[C@H]3N(CCCCCCO)C(=O)[C@@H]4C12 (stereo not given in full) .
Key: 0.546

Exercise: Name the recorded z-score for Nc1cc(Br)ccc1C(=O)O .
Key: 0.615

Exercise: Name the recorded z-score for O=C1NC(=O)C2C1C=CC(C(O)c1ccccn1)N2Nc1ccc(Cl)cc1Cl (stereo not given) .
Key: -1.08

----------
Target: Fibroblast growth factor 2 (Homo sapiens) (UniProt P09038)
Sequence (P09038 whole entry, looked up): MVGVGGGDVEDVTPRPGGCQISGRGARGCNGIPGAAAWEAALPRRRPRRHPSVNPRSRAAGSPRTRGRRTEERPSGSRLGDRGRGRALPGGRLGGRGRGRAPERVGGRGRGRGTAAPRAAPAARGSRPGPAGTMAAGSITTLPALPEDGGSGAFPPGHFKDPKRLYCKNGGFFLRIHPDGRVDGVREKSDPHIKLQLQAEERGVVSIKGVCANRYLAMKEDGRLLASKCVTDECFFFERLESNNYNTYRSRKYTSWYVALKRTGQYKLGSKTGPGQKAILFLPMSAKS
Test: FGF2 binders on small-molecule microarrays, primary screen, biochemical, small-molecule microarray, 635/667 nm fluorescence (AID 1133)
Details: small-molecule microarray binding, FGF2, fluorescence 635/667; higher = more signal
// reported composite z-score per item
Give only the figure.

Example entries and their recorded answers appear below.
O=C1OCCC/C=C\[C@H]2OC34C=CCN(c5ccc6ccccc6c5)C(=O)[C@H]3N(CCCO)C(=O)[C@@H]4C12 (some centres undefined); -0.755
C=CCC(OC(C)=O)[C@@H]1[C@@H](N(Cc2ccc(-c3ccccc3)cc2)C(=O)c2ccc(C)cc2)c2cc(OCCCO)ccc2N1C(=O)Cc1ccc2ccccc2c1 (some centres undefined); -0.154
CC1(C)C(=O)C(c2ccccc2)=C2CN3C(=O)N(CCc4ccccc4)C(=O)C3(Cc3ccc(F)cc3)C=C21 (centres undefined); -0.979

Now consider a different compound.
Exercise: Name the recorded composite z-score for C=C(COC)C(=O)CC[C@H](OC(C)=O)c1ccc(OCCO)cc1 .
Key: 1.43
